Tested on: HOP-62 multicell spheroids with HUVEC/MSC, viability
Assay: Anticancer human tumor HOP-62 cell line growth inhibition [KRAS2];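 also: viability read after a week of compound exposure; 100% = DMSO vehicle-treated spheroids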
Conditions: second compound 0.1 µM; first compound 0.316 µM; stronger effect = lower value
Source text: Multicellular complex tumor spheroid response to RAS pathway inhibitors in combination with a targeted agents in patient-derived cell lines with oncogenic KRAS variants from multiple cancer types A high-throughput screen of multi-cell type tumor spheroids was designed to identify active combinations of targeted small molecules and KRAS pathway inhibitors. […] Compounds. […] If the clinical Cmax for an agent had not been determined, the highest concentration tested was 10 microM. […]
Task for the reader: assign each of the following molecules its reported viability, T/C.
Give your result in % as a bare value.

Q) # viability, T/C lookup, item CC1(C)CCC(CN2CCN(c3ccc(C(=O)NS(=O)(=O)c4ccc(NCC5CCOCC5)c([N+](=O)[O-])c4)c(Oc4cnc5[nH]ccc5c4)c3)CC2)=C(c2ccc(Cl)cc2)C1 + C=CC(=O)N1CCN(c2nc(OCC3CCCN3C)nc3c2CCN(c2cccc4cccc(C)c24)C3)CC1CC#N
A) 37.8

Q) Moving on to CC1COCCN1c1cc(-c2ccnn2C)c2ccnc(-c3ccn[nH]3)c2n1 (stereo not given) + CNCc1ccccc1-c1csc(C(C)Nc2nc(C)nc3cc(OC)c(OC)cc23)c1
A) 13.5

Q) Moving on to CC(C)NCC(C(=O)N1CCN(c2ncnc3c2C(C)CC3O)CC1)c1ccc(Cl)cc1 (stereo not given) + CNCc1ccccc1-c1csc(C(C)Nc2nc(C)nc3cc(OC)c(OC)cc23)c1
A) 83.4

Q) Moving on to Cn1nccc1Nc1nccc(-c2cc3c(s2)C(C)(C)N(CCN2CCOCC2)C3=O)n1 + C=CC(=O)N1CCN(c2nc(OCC3CCCN3C)nc3c2CCN(c2cccc4cccc(C)c24)C3)CC1CC#N
A) 39.3

Q) Moving on to COC(=O)c1ccc2c(C(=Nc3ccc(N(C)C(=O)CN4CCN(C)CC4)cc3)c3ccccc3)c(O)[nH]c2c1 + CNCc1ccccc1-c1csc(C(C)Nc2nc(C)nc3cc(OC)c(OC)cc23)c1
A) 40.1

Q) Moving on to COC(=O)c1ccc2c(C(=Nc3ccc(N(C)C(=O)CN4CCN(C)CC4)cc3)c3ccccc3)c(O)[nH]c2c1 + C=CC(=O)N1CCN(c2nc(OCC3CCCN3C)nc3c2CCN(c2cccc4cccc(C)c24)C3)CC1CC#N
A) 21.7

Q) Moving on to CC1OCC2(CCN(c3cnc(Sc4ccnc(N)c4Cl)c(N)n3)CC2)C1N (stereo not given) + COc1cc2nc(C)nc(NC(C)c3cc(N)cc(C(F)(F)F)c3)c2cc1OC1CCOC1
A) 79.8

Q) Moving on to CCN1CCN(Cc2ccc(Nc3ncc(F)c(-c4cc(F)c5nc(C)n(C(C)C)c5c4)n3)nc2)CC1 + C=CC(=O)N1CCN(c2nc(OCC3CCCN3C)nc3c2CCN(c2cccc4cccc(C)c24)C3)CC1CC#N
A) 42.9

Q) Moving on to CCNC(=O)CC1N=C(c2ccc(Cl)cc2)c2cc(OC)ccc2-n2c(C)nnc21 (stereo not given) + C=CC(=O)N1CCN(c2nc(OCC3CCCN3C)nc3c2CCN(c2cccc4cccc(C)c24)C3)CC1CC#N
A) 25.1

Q) Moving on to CC1OCC2(CCN(c3cnc(Sc4ccnc(N)c4Cl)c(N)n3)CC2)C1N (stereo not given) + C=CC(=O)N1CCN(c2nc(OCC3CCCN3C)nc3c2CCN(c2cccc4cccc(C)c24)C3)CC1CC#N
A) 19.9

Q) Moving on to COC(=O)c1ccc2c(C(=Nc3ccc(N(C)C(=O)CN4CCN(C)CC4)cc3)c3ccccc3)c(O)[nH]c2c1 + CC1OCC2(CCN(c3cnc(Sc4ccnc(N)c4Cl)c(N)n3)CC2)C1N
A) 43.7

Q) Moving on to COc1cc(Nc2ncc3c(n2)-c2ccc(Cl)cc2C(c2c(F)cccc2OC)=NC3)ccc1C(=O)O + C=CC(=O)N1CCN(c2nc(=O)n(-c3c(C)ccnc3C(C)C)c3nc(-c4c(O)cccc4F)c(F)cc23)C(C)C1
A) 23.2

Q) Moving on to CC(=O)OC12COC1CC(O)C1(C)C(=O)C(O)C3=C(C)C(OC(=O)C(O)C(NC(=O)OC(C)(C)C)c4ccccc4)CC(O)(C(OC(=O)c4ccccc4)C21)C3(C)C (stereo not given) + C=CC(=O)N1CCN(c2nc(=O)n(-c3c(C)ccnc3C(C)C)c3nc(-c4c(O)cccc4F)c(F)cc23)C(C)C1
A) 25.1

Q) Moving on to COc1cc(Nc2ncc3c(n2)-c2ccc(Cl)cc2C(c2c(F)cccc2OC)=NC3)ccc1C(=O)O + C=CC(=O)N1CCN(c2nc(OCC3CCCN3C)nc3c2CCN(c2cccc4cccc(C)c24)C3)CC1CC#N
A) 25.1

Q) Moving on to COc1cc2nccc(Oc3ccc(NC(=O)C4(C(=O)Nc5ccc(F)cc5)CC4)cc3)c2cc1OC + CNCc1ccccc1-c1csc(C(C)Nc2nc(C)nc3cc(OC)c(OC)cc23)c1
A) 102

Q) Moving on to CCNC(=O)CC1N=C(c2ccc(Cl)cc2)c2cc(OC)ccc2-n2c(C)nnc21 (stereo not given) + CNCc1ccccc1-c1csc(C(C)Nc2nc(C)nc3cc(OC)c(OC)cc23)c1
A) 52.3

Q) Moving on to CCNC(=O)CC1N=C(c2ccc(Cl)cc2)c2cc(OC)ccc2-n2c(C)nnc21 (stereo not given) + CC1OCC2(CCN(c3cnc(Sc4ccnc(N)c4Cl)c(N)n3)CC2)C1N
A) 45.2

Q) Moving on to CC1(C)CCC(CN2CCN(c3ccc(C(=O)NS(=O)(=O)c4ccc(NCC5CCOCC5)c([N+](=O)[O-])c4)c(Oc4cnc5[nH]ccc5c4)c3)CC2)=C(c2ccc(Cl)cc2)C1 + C=CC(=O)N1CCN(c2nc(=O)n(-c3c(C)ccnc3C(C)C)c3nc(-c4c(O)cccc4F)c(F)cc23)C(C)C1
A) 50.5

Q) Moving on to CC1OCC2(CCN(c3cnc(Sc4ccnc(N)c4Cl)c(N)n3)CC2)C1N (stereo not given) + C=CC(=O)N1CCN(c2nc(=O)n(-c3c(C)ccnc3C(C)C)c3nc(-c4c(O)cccc4F)c(F)cc23)C(C)C1
A) 26.5

Q) Moving on to COC(=O)c1ccc2c(C(=Nc3ccc(N(C)C(=O)CN4CCN(C)CC4)cc3)c3ccccc3)c(O)[nH]c2c1 + C=CC(=O)N1CCN(c2nc(=O)n(-c3c(C)ccnc3C(C)C)c3nc(-c4c(O)cccc4F)c(F)cc23)C(C)C1
A) 25.5
